- PROTOCOL: soluble on expression in E. coli; label from the status in PepcDB or PDB records

{"SEQUENCE ENTRY": "MGSDKIHHHHHHLRMSRIQARLLQAIVRPALKTNLLKHAAWRVVLKLRNEFAHAVPPVELETTFDENIRILTSLSDHIESQVFWQGFQEADEGVILLLKRFLPSDGSFIDVGANIGTFTLVAAHRAVRGQVHAFEPSAHHFARLAHNVELNDFKNVALNRKGLYDQPGEAVLFLPSQTGEMNNSGAASLYTSALEETRQVSEAVSLIRLDDYVREKSIGRVDIIKIDIEGAELKALEGARETIARFRPLVFMELDLDNLERAERSPEEVLQYWKSLNYEVSIILLTGETVPVTSPKEFGLHQNLQCRPF", "soluble on expression in E. coli": "not soluble"}
{"SEQUENCE ENTRY": "MGMFERDTEIYLDRDALREDYQPENLVGRDTELNRYRAALQPVINGEQPNNIFLYGKTGVGKTAGTRYLIDHLEEDAAKYEDIDLTVKMLNCDGLSSSYQIATRLVNEFRDETSQISTTGYPRATVYDMLWTELDSCGGTIYIVLDEVDHIEDDSILYQLPRARANDNLSSAKIGIIGISNDFSFRDDLSPKVKSSLCEEEIQFPA", "soluble on expression in E. coli": "not soluble"}

====

- PROTOCOL: soluble on expression in E. coli; label from the status in PepcDB or PDB records

{"SEQUENCE ENTRY": "MSLSMKSELRKQVLHEMKAISQEQKQAIDQALTERLLHHPFYQEAKVIATYLSFSHEFQTRELIEQALKDGKKVLIPKTYPKGRMEFVAYDPQQLVKTSFALLEPQGDVEVVDASQIDLIHVPGLAFTTKGYRIGYGGGYYDRYLEHFSGRTLSTIYPCQIQDFIPEEGHHHHHH", "soluble on expression in E. coli": "not soluble"}
{"SEQUENCE ENTRY": "MTGKKRSASSSRWLQEHFSDKYVQQAQKKGLRSRAWFKLDEIQQSDKLFKPGMTVVDLGAAPGGWSQYVVTQIGGKGRIIACDLLPMDPIVGVDFLQGDFRDELVMKALLERVGDSKVQVVMSDMAPNMSGTPAVDIPRAMYLVELALEMCRDVLAPGGSFVVKVFQGEGFDEYLREIRSLFTKVKVRKPDSSRARSREVYIVATGRKP", "soluble on expression in E. coli": "soluble"}
{"SEQUENCE ENTRY": "SMGRRCQAQVSRRISFSASHRLYSKFLSDEENLKLFGKCNNPNGHGHNYKVVVTVHGEIDPATGMVMNLADLKKYMEEAIMQPLDHKNLDMDVPYFADVVSTTENVAVYIWDNLQKVLPVGVLYKVKVYETDNNIVVYKGE", "soluble on expression in E. coli": "soluble"}
{"SEQUENCE ENTRY": "MPTENELKIYLKRWDKKYGLTYKVLDILQTVFYRSDATREAFVEMCGDLDVQKLTFDSYLYKTVVPANPITQLKITAKTIGSLIRGNALAPLEHHHHHH", "soluble on expression in E. coli": "not soluble"}

====

- PROTOCOL: soluble on expression in E. coli; label from the status in PepcDB or PDB records
EXPERIMENTAL READOUT: soluble on expression in E. coli

{"SEQUENCE ENTRY": "MGSDKIHHHHHHMSRSPFQTFVWRSEIFECQSTDIQRFYSLLAIETERLGLGSKILGQAGHHPLYLLQSPGQKAGLPNLLISAGFHGEESAGPWGLLHFLSQLDGELFKRVNLSVLPLVNPTGFAKGHRFNELGENPNRGFFIENGKAKPGADTSAEGRILLEHAHLLQVASRDGILTCHEDVLMTDTYVYTFEPSQAPGRFSHSLRDALGQYFPIAADGDVDNCPVRSGVIFNHFDTSFESFLVRSGARVGCCSETPGQQPLDQRILANAAAMNTFVNMLAPELS", "soluble on expression in E. coli": "not soluble"}
{"SEQUENCE ENTRY": "MGSDKIHHHHHHAQTPNTLTKKEKKAGWELLFNGKDFSGWRQCNGTAMPANWVIEDNAMKVFTGEGKKPGQGANGDILYQNKKFKNFELSVDWKASKMGNSGIFYYVREVPGKPIYYAAPEVQVLDNVDATDNKLANHLAGSLYDMLPADPKTVNPAGEWNTIVIRVKDGKVTHTQNGKKVVEYTLWSKEWDDLVANSKFKNFPGFTEGISKEGYIGLQDHGYPIWFRNIKIRELK", "soluble on expression in E. coli": "not soluble"}
{"SEQUENCE ENTRY": "GMFADNTLTPKEAVRLCALGTIASQPMRYSELAGSVRHFTSRIMGPSLELMGISIELLRYEGLVEAVDDGQGMEDDAMLAISAAGRRELHSLLTARLRPGSDLSKLVVALKMRFLGLMEAEERAHQIDLLIEGVDSELARLADLRGSDGEGGSALAAWLDHDMALLESRLAWLEDFRARL", "soluble on expression in E. coli": "soluble"}
{"SEQUENCE ENTRY": "MKKIVFLLLLCVACCMNAQEFHLIPKVGLNLANTTGEVDSKVRPGLNIGLGGDVMLTERFGIETGVYYSMQGSKYKGGGVSYTDKLDYINVPVYAKEFIYKGLYVFGGPQFSFNVNSENKSSSDYGTTVIGMNVIRKFDCGVGLGAGYQFERGLLISLNYNIGLINVNKSWASDSNPKANNSVVQLNVGWRFAL", "soluble on expression in E. coli": "not soluble"}
{"SEQUENCE ENTRY": "MMVYIMNAFDIKSTKMDVLSISLHTSDLFDLEDVLVKLGKKFQESGVVPFVLDVQEFDYPESLDLAALVSLFSRHGMQILGLKHSNERWAAAAMKYHLLFCLSHSENVKELGQVEVQKTEDGQKARKTVLITSPVRTGQQVYAEDGDLIVTGAVSQGAELIADGNIHIYAPMRGRALAGAKGDTSARIFIHSMQAELVSVAGIYRNFEQDLPNHLHKQPVQILLQDNRLVISAIGSE", "soluble on expression in E. coli": "not soluble"}

Now examine the next entry.
// recorded soluble on expression in E. coli for `MSTETDSILAAFEKFNTIIIHRHINPDPDAIGSQTGLALLLRAAYPAKTIYTAGPAAPDLAWIGPQQQVSAEAYTGALVVVIDTSNRERIAGDHFDQGAMLIKIDHHLDEDQLGTINWVDTHASSASEMVWDLVRHSPQLQLTKAAATALYAGIIGDTGRFLYDLTTARTHQAAADLLATGIDAAAIGRQEDQFPENVGRLIGWALENVKITDTGAGSLLITKAVLAQFGLAYGEEQRAVGNIGKLASIDRWVVFTERTDGSYRVELRGKTKEINTLAVQHGGGGHPLASGAVADNAAELHAIEEELASLLEHHHHHH` : soluble

====

- PROTOCOL: soluble on expression in E. coli; label from the status in PepcDB or PDB records
EXPERIMENTAL READOUT: soluble on expression in E. coli

{"SEQUENCE ENTRY": "MGSDKIHHHHHHMTVHDRIVAEPFSLQRRNPAGGTKPLTSWGFANETDVLTDVLLGSPNFLRHLSTSSLSRKHLREAPCNVQIAQAQHKDLVAAYEHFGVNIHWHEPTPELPMQVYSRDSSVMTPYGAIITAMANWWRRGENYAAIRTYEKLGIPIYDMVTAGTFEGGDFNVIEDGVVLIGCGGARTQEEGARQVQAWFEKEGWETRIAFIDEYYVHIDLMVVPIAEKLTAVCLACTEPGIVDWLKGKGHEIIDVPFQDTMALGCNFMSLGKDRVIAPTSSQTLIGQLKARGFEVAAVDMSEISKTGGGIHCMAQALKREAA", "soluble on expression in E. coli": "not soluble"}
{"SEQUENCE ENTRY": "RMSSQIRQNYSTDVEAAVNSLVNLYLQASYTYLSLGFYFDRDDVALEGVSHFFRELAEEKREGYERLLKMQNQRGGRALFQDIKKPAEDEWGKTPDAMKAAMALEKKLNQALLDLHALGSARTDPHLCDFLETHFLDEEVKLIKKMGDHLTNLHRLGGPEAGLGEYLSSKGSLSSTTKSLLSPATSEGPLAK", "soluble on expression in E. coli": "soluble"}
{"SEQUENCE ENTRY": "MGSDKIHHHHHHMSQIIAIHSFRGGTGKSNIIANIGATMALKGQRVGIIDTDIQSPGIHIIFGLKEEKIRLTLNDYLWKRCDIQDTAYDVTDTLIAESGNTDKIRGSLYLIPSSIKAAEIARVLREGYDVVRLHDGFQEIIRSLKLDYLLIDTHPGLNEETLISIGIANTLLIILRPDNQDFQGTAVTVDVARKLKAARILLVLNKALASFNFTDLQQQLEQIYDVPVVGILPLAEDMVQLASKGLFCLRYPQHPITQTIQEITDQLAGLVVSHQ", "soluble on expression in E. coli": "not soluble"}
{"SEQUENCE ENTRY": "MGSDKIHHHHHHMLDKIELFILDMDGTFYLDDSLLPGSLEFLETLKEKNKRFVFFTNNSSLGAQDYVRKLRNMGVDVPDDAVVTSGEITAEHMLKRFGRCRIFLLGTPQLKKVFEAYGHVIDEENPDFVVLGFDKTLTYERLKKACILLRKGKFYIATHPDINCPSKEGPVPDAGSIMAAIEASTGRKPDLIAGKPNPLVVDVISEKFGVPKERMAMVGDRLYTDVKLGKNAGIVSILVLTGETTPEDLERAETKPDFVFKNLGELAKAVQ", "soluble on expression in E. coli": "not soluble"}
{"SEQUENCE ENTRY": "MGHHHHHHSHMYAKEIFSYMKEREEQFILTDYMNRQIEITSDMRAILVDWLVEVQVSFEMTHETLYLAVKLVDLYLMKAVCKKDKLQLLGATAFMIAAKFEEHNSPRVDDFVYICDDNYQRSEVLSMEINILNVLKCDINIPIAYHFLRRYAR", "soluble on expression in E. coli": "not soluble"}
{"SEQUENCE ENTRY": "MANAYKQAGVDIEAGYEAVSRMKKHVQTTMRKEVLGGLGGFGGMFDLSKFALEEPVLVSGTDGVGTKLMLAFMADKHDTIGIDAVAMCVNDIVVQGAEPLFFLDYIACGKAEPSKIENIVKGISEGCRQAGCALIGGETAEMPGMYSTEEYDLAGFTVGIVDKKKIVTGEKIEAGHVLIGLASSGIHSNGYSLVRKVLLEDGELSLDRIYGRLELPLGEELLKPTKIYVKPILELLKNHEVYGMAHITGGGFIENIPRMLPEGIGAEIELGSWKIQPIFSLLQEVGKLEEKEMFNIFNMGIGMVVAVKEEDAKDIVRLLEEQGETARIIGRTVQGAGVTFNGGKAL", "soluble on expression in E. coli": "soluble"}

// recorded soluble on expression in E. coli for `MGSDKIHHHHHHMDYLDIGQAADNKYYSSKRTLPLAIMKENAKEYQPLKINTIKTCSCKENNLNCLTAKEWIKRQIGVWEFYYEKRDIRDKTVHPATFPISLAKQVIELFSHEGELVVDPFVGSGTTLVAARDSNRNAVGFDLQEKYIKLCAERLSTQRIVGNAQQVAIEEDARNISNYFNEESISLIFTSPPYANLLNRERKNKSRRNRKNNQLGKVEQYSQDPRDLGTLDVESYTKEMGDIFEKVKPALRTKGHCVINVPDMWWENKRIAIHVYLINEMTKRGYELRNIIIWDKRNLVNQIGIFGWPSNYITMGVTFEYLLDFWKP` : not soluble

// recorded soluble on expression in E. coli for `MSGSHHHHHHSSGIEGRGRLQTRQDVLYLYNWTYYTPTSLIKKFEQQYNVQVVYDDYASNEDMFAKLSIGASGYDLVVPSGDFVSIMKRKHLLEKIDLSKIPNVQFIKESVRARIAYDPKMEYSVPYYLGAAGIAVNKKAVPSYARTWSIFSRKDLAYRMSMMDDMREVMGAALASLGYNVNTKNEQELAQAAILVTDHWKPNLVKFDSDGYAKSFASGDFVVAHGFAEAFFAETPEAMHEHIDFFIPQDVASPVYVDSFCIPKGARNRDLAHAFINFFLEPAHYAEFLDTFGFPSTIHREAAAYQKKTPYYSEHDLERGTLKTDVGAAIEHYNAHWNAVRFR` : soluble

// recorded soluble on expression in E. coli for `MSLDWDSVHVPGPHAMTIQELVDYVNARQKQGIYEEYEDIRRENPVGTFHCSMSPGNLEKNRYGDVPCLDQTRVKLTKRSGHTQTDYINASFMDGYKQKNAYIGTQGPLENTYRDFWLMVWEQKVLVIVMTTRFEEGGRRKCGQYWPLEKDSRIRFGFLTVTNLGVENMNHYKKTTLEIHNTEERQKRQVTHFQFLSWPDYGVPSSAASLIDFLRVVRNQQSLAVSNMGARSKGQCPEPPIVVHCSAGIGRTGTFCSLDICLAQLEELGTLNVFQTVSRMRTQRAFSIQTPEQYYFCYKAILEFAEKEGMVSSGQNLLAVESQEGHHHHHH` : soluble

// recorded soluble on expression in E. coli for `MGSDKIHHHHHHMNVEKLKKMKGKEKIVMVTAYDAPSARIARDAGIDVILVGDSLGNNVLGYENTIPVTMEEMLIHVAAVKRGAPDAFIVADMPFLSYQTSVEKAVENAGKFLKVGANAVKIEGGEEFGELVQKLVESGIPVMGHIGLTPQFVNRFGGYRVQGKTEKNREYLLRSARELEKRGAFAIVLELVVEEVAKEITESVSIPTIGIGSGRFCDGQVLVWHDLLGLNPDFAPRFSKKYANLYEVILKALQEFRREVKKGLFPTEEHSFTDKSKGGVSS` : not soluble

# credit: the DeepSol protein solubility set
